Kindly supply the reported activity coefficient values for the records listed here.
Assay: activity coefficient (dimensionless); of the first substance listed, at infinite dilution; xn = mol fraction of the nth substance listed
Settings: 338.15 K; 101.33 kPa; Liquid; Chromatography; x1 = 0
Could you keep your reply to the number by itself?

Give the measured activity coefficient for C=CCCC [1-pentene] + CCCCCCCCCCCCCC[P+](CCCCCC)(CCCCCC)CCCCCC.N#CC(=C=[N-])C#N
1.27

Give the measured activity coefficient for C=Cc1ccccc1 [styrene] + CCCCCCCCCCCCCC[P+](CCCCCC)(CCCCCC)CCCCCC.N#CC(=C=[N-])C#N
0.52

Give the measured activity coefficient for CC#N [acetonitrile] + CCCCCCCCCCCCCC[P+](CCCCCC)(CCCCCC)CCCCCC.N#CC(=C=[N-])C#N
0.668

Give the measured activity coefficient for CCOC(C)(C)C [2-ethoxy-2-methylpropane] + CCCCCCCCCCCCCC[P+](CCCCCC)(CCCCCC)CCCCCC.N#CC(=C=[N-])C#N
1.45

Give the measured activity coefficient for CCOCC [diethyl ether] + CCCCCCCCCCCCCC[P+](CCCCCC)(CCCCCC)CCCCCC.N#CC(=C=[N-])C#N
0.981

Give the measured activity coefficient for c1ccccc1 [benzene] + CCCCCCCCCCCCCC[P+](CCCCCC)(CCCCCC)CCCCCC.N#CC(=C=[N-])C#N
0.481

Give the measured activity coefficient for CO [methanol] + CCCCCCCCCCCCCC[P+](CCCCCC)(CCCCCC)CCCCCC.N#CC(=C=[N-])C#N
0.399

Give the measured activity coefficient for CCOC(C)=O [ethyl acetate] + CCCCCCCCCCCCCC[P+](CCCCCC)(CCCCCC)CCCCCC.N#CC(=C=[N-])C#N
0.678

Give the measured activity coefficient for CCCCO [butan-1-ol] + CCCCCCCCCCCCCC[P+](CCCCCC)(CCCCCC)CCCCCC.N#CC(=C=[N-])C#N
0.435

Give the measured activity coefficient for C1CCCCC1 [cyclohexane] + CCCCCCCCCCCCCC[P+](CCCCCC)(CCCCCC)CCCCCC.N#CC(=C=[N-])C#N
1.15

Give the measured activity coefficient for COC(C)=O [methyl ethanoate] + CCCCCCCCCCCCCC[P+](CCCCCC)(CCCCCC)CCCCCC.N#CC(=C=[N-])C#N
0.669

Give the measured activity coefficient for CCCCCCCC [octane] + CCCCCCCCCCCCCC[P+](CCCCCC)(CCCCCC)CCCCCC.N#CC(=C=[N-])C#N
2.36

###

Assay: activity coefficient (dimensionless); of the first substance listed, at infinite dilution; xn = mol fraction of the nth substance listed
Conditions: 368.15 K; 101.33 kPa; Liquid; Chromatography; x1 = 0
Kindly supply the reported activity coefficient values for the records listed here.
Could you keep your reply to the number by itself?

Give the measured activity coefficient for CCOCC [diethyl ether] + CCCCCCCCCCCCCC[P+](CCCCCC)(CCCCCC)CCCCCC.N#CC(=C=[N-])C#N
1.08

Give the measured activity coefficient for C#CCCCCC [1-heptyne] + CCCCCCCCCCCCCC[P+](CCCCCC)(CCCCCC)CCCCCC.N#CC(=C=[N-])C#N
1.11

Give the measured activity coefficient for C1CCCC1 [cyclopentane] + CCCCCCCCCCCCCC[P+](CCCCCC)(CCCCCC)CCCCCC.N#CC(=C=[N-])C#N
1.04

Give the measured activity coefficient for CCC(=O)CC [pentan-3-one] + CCCCCCCCCCCCCC[P+](CCCCCC)(CCCCCC)CCCCCC.N#CC(=C=[N-])C#N
0.514

Give the measured activity coefficient for CCOC(C)(C)C [2-ethoxy-2-methylpropane] + CCCCCCCCCCCCCC[P+](CCCCCC)(CCCCCC)CCCCCC.N#CC(=C=[N-])C#N
1.56

Give the measured activity coefficient for C1=CCCCC1 [cyclohexene] + CCCCCCCCCCCCCC[P+](CCCCCC)(CCCCCC)CCCCCC.N#CC(=C=[N-])C#N
0.973

Give the measured activity coefficient for CCC(C)(C)OC [2-methoxy-2-methylbutane] + CCCCCCCCCCCCCC[P+](CCCCCC)(CCCCCC)CCCCCC.N#CC(=C=[N-])C#N
1.18

Give the measured activity coefficient for c1ccncc1 [pyridine] + CCCCCCCCCCCCCC[P+](CCCCCC)(CCCCCC)CCCCCC.N#CC(=C=[N-])C#N
0.438

Give the measured activity coefficient for CC(C)=O [acetone] + CCCCCCCCCCCCCC[P+](CCCCCC)(CCCCCC)CCCCCC.N#CC(=C=[N-])C#N
0.503

Give the measured activity coefficient for CCC(C)CC [3-methylpentane] + CCCCCCCCCCCCCC[P+](CCCCCC)(CCCCCC)CCCCCC.N#CC(=C=[N-])C#N
1.8

Give the measured activity coefficient for CCCC(=O)OC [methyl butanoate] + CCCCCCCCCCCCCC[P+](CCCCCC)(CCCCCC)CCCCCC.N#CC(=C=[N-])C#N
0.764

Give the measured activity coefficient for C=CCCC [1-pentene] + CCCCCCCCCCCCCC[P+](CCCCCC)(CCCCCC)CCCCCC.N#CC(=C=[N-])C#N
1.34

Give the measured activity coefficient for C1CCCCC1 [cyclohexane] + CCCCCCCCCCCCCC[P+](CCCCCC)(CCCCCC)CCCCCC.N#CC(=C=[N-])C#N
1.18

Give the measured activity coefficient for C1CCCCCCC1 [cyclooctane] + CCCCCCCCCCCCCC[P+](CCCCCC)(CCCCCC)CCCCCC.N#CC(=C=[N-])C#N
1.37

Give the measured activity coefficient for CC(C)O [propan-2-ol] + CCCCCCCCCCCCCC[P+](CCCCCC)(CCCCCC)CCCCCC.N#CC(=C=[N-])C#N
0.516

Give the measured activity coefficient for CCCCCCCC [octane] + CCCCCCCCCCCCCC[P+](CCCCCC)(CCCCCC)CCCCCC.N#CC(=C=[N-])C#N
2.39

Give the measured activity coefficient for C1CCCCCC1 [cycloheptane] + CCCCCCCCCCCCCC[P+](CCCCCC)(CCCCCC)CCCCCC.N#CC(=C=[N-])C#N
1.26

Give the measured activity coefficient for CCC(C)(C)C [2,2-dimethylbutane] + CCCCCCCCCCCCCC[P+](CCCCCC)(CCCCCC)CCCCCC.N#CC(=C=[N-])C#N
1.93

Give the measured activity coefficient for CCC[N+](=O)[O-] [1-nitropropane] + CCCCCCCCCCCCCC[P+](CCCCCC)(CCCCCC)CCCCCC.N#CC(=C=[N-])C#N
0.585

Give the measured activity coefficient for Cc1ccccc1 [toluene] + CCCCCCCCCCCCCC[P+](CCCCCC)(CCCCCC)CCCCCC.N#CC(=C=[N-])C#N
0.656

Give the measured activity coefficient for C#CCCCC [1-hexyne] + CCCCCCCCCCCCCC[P+](CCCCCC)(CCCCCC)CCCCCC.N#CC(=C=[N-])C#N
0.987

Give the measured activity coefficient for CC(C)CC(C)(C)C [2,2,4-trimethylpentane] + CCCCCCCCCCCCCC[P+](CCCCCC)(CCCCCC)CCCCCC.N#CC(=C=[N-])C#N
2.33

Give the measured activity coefficient for CC(C)OC(C)C [diisopropyl ether] + CCCCCCCCCCCCCC[P+](CCCCCC)(CCCCCC)CCCCCC.N#CC(=C=[N-])C#N
1.66

Give the measured activity coefficient for CO [methanol] + CCCCCCCCCCCCCC[P+](CCCCCC)(CCCCCC)CCCCCC.N#CC(=C=[N-])C#N
0.424

Give the measured activity coefficient for c1ccsc1 [thiophene] + CCCCCCCCCCCCCC[P+](CCCCCC)(CCCCCC)CCCCCC.N#CC(=C=[N-])C#N
0.478

Give the measured activity coefficient for COC(C)(C)C [2-methoxy-2-methylpropane] + CCCCCCCCCCCCCC[P+](CCCCCC)(CCCCCC)CCCCCC.N#CC(=C=[N-])C#N
1.1

###

Test: activity coefficient (dimensionless); of the first substance listed, at infinite dilution; xn = mol fraction of the nth substance listed
Details: 328.15 K; 101.33 kPa; Liquid; Chromatography; x1 = 0
Criterion: activity coefficient strictly under 1. Met: Fulfilled. Not met: Not fulfilled.

Strictly below 1 in activity coefficient? CCC(C)(C)C [2,2-dimethylbutane] + CCCCCCCCCCCCCC[P+](CCCCCC)(CCCCCC)CCCCCC.N#CC(=C=[N-])C#N
Not fulfilled

Strictly below 1 in activity coefficient? C1CCOC1 [tetrahydrofuran] + CCCCCCCCCCCCCC[P+](CCCCCC)(CCCCCC)CCCCCC.N#CC(=C=[N-])C#N
Fulfilled

Strictly below 1 in activity coefficient? c1ccsc1 [thiophene] + CCCCCCCCCCCCCC[P+](CCCCCC)(CCCCCC)CCCCCC.N#CC(=C=[N-])C#N
Fulfilled

Strictly below 1 in activity coefficient? CC1CCCCC1 [methylcyclohexane] + CCCCCCCCCCCCCC[P+](CCCCCC)(CCCCCC)CCCCCC.N#CC(=C=[N-])C#N
Not fulfilled

Strictly below 1 in activity coefficient? CCCCCCCCC [nonane] + CCCCCCCCCCCCCC[P+](CCCCCC)(CCCCCC)CCCCCC.N#CC(=C=[N-])C#N
Not fulfilled

Strictly below 1 in activity coefficient? CCCO [propan-1-ol] + CCCCCCCCCCCCCC[P+](CCCCCC)(CCCCCC)CCCCCC.N#CC(=C=[N-])C#N
Fulfilled

Strictly below 1 in activity coefficient? CCOC(C)=O [ethyl acetate] + CCCCCCCCCCCCCC[P+](CCCCCC)(CCCCCC)CCCCCC.N#CC(=C=[N-])C#N
Fulfilled

Strictly below 1 in activity coefficient? C=CCCCC [hex-1-ene] + CCCCCCCCCCCCCC[P+](CCCCCC)(CCCCCC)CCCCCC.N#CC(=C=[N-])C#N
Not fulfilled

Strictly below 1 in activity coefficient? CCCC(=O)OC [methyl butanoate] + CCCCCCCCCCCCCC[P+](CCCCCC)(CCCCCC)CCCCCC.N#CC(=C=[N-])C#N
Fulfilled

Strictly below 1 in activity coefficient? CCC(C)O (stereo not drawn) [butan-2-ol] + CCCCCCCCCCCCCC[P+](CCCCCC)(CCCCCC)CCCCCC.N#CC(=C=[N-])C#N
Fulfilled

Strictly below 1 in activity coefficient? CCOCC [diethyl ether] + CCCCCCCCCCCCCC[P+](CCCCCC)(CCCCCC)CCCCCC.N#CC(=C=[N-])C#N
Fulfilled

Strictly below 1 in activity coefficient? CCCCCC [hexane] + CCCCCCCCCCCCCC[P+](CCCCCC)(CCCCCC)CCCCCC.N#CC(=C=[N-])C#N
Not fulfilled

Strictly below 1 in activity coefficient? CC(C)O [propan-2-ol] + CCCCCCCCCCCCCC[P+](CCCCCC)(CCCCCC)CCCCCC.N#CC(=C=[N-])C#N
Fulfilled

Strictly below 1 in activity coefficient? C=CCCC [1-pentene] + CCCCCCCCCCCCCC[P+](CCCCCC)(CCCCCC)CCCCCC.N#CC(=C=[N-])C#N
Not fulfilled

Strictly below 1 in activity coefficient? C1CCCCCC1 [cycloheptane] + CCCCCCCCCCCCCC[P+](CCCCCC)(CCCCCC)CCCCCC.N#CC(=C=[N-])C#N
Not fulfilled

Strictly below 1 in activity coefficient? CCO [ethanol] + CCCCCCCCCCCCCC[P+](CCCCCC)(CCCCCC)CCCCCC.N#CC(=C=[N-])C#N
Fulfilled

Strictly below 1 in activity coefficient? COC(C)(C)C [2-methoxy-2-methylpropane] + CCCCCCCCCCCCCC[P+](CCCCCC)(CCCCCC)CCCCCC.N#CC(=C=[N-])C#N
Fulfilled

Strictly below 1 in activity coefficient? C1COCCO1 [1,4-dioxane] + CCCCCCCCCCCCCC[P+](CCCCCC)(CCCCCC)CCCCCC.N#CC(=C=[N-])C#N
Fulfilled

Strictly below 1 in activity coefficient? C=CCCCCC [1-heptene] + CCCCCCCCCCCCCC[P+](CCCCCC)(CCCCCC)CCCCCC.N#CC(=C=[N-])C#N
Not fulfilled

Strictly below 1 in activity coefficient? CO [methanol] + CCCCCCCCCCCCCC[P+](CCCCCC)(CCCCCC)CCCCCC.N#CC(=C=[N-])C#N
Fulfilled

Strictly below 1 in activity coefficient? CC(C)(C)O [2-methylpropan-2-ol] + CCCCCCCCCCCCCC[P+](CCCCCC)(CCCCCC)CCCCCC.N#CC(=C=[N-])C#N
Fulfilled

Strictly below 1 in activity coefficient? CC(C)CO [2-methyl-1-propanol] + CCCCCCCCCCCCCC[P+](CCCCCC)(CCCCCC)CCCCCC.N#CC(=C=[N-])C#N
Fulfilled

Strictly below 1 in activity coefficient? C#CCCC [1-pentyne] + CCCCCCCCCCCCCC[P+](CCCCCC)(CCCCCC)CCCCCC.N#CC(=C=[N-])C#N
Fulfilled
